Assay: Particle size and PDI of lipid nanoparticles (Nano-ZSZEN3600, Malvern)
Assay type: physicochemical
Settings: LNPs, Formulation Method 1
Quantity Measured: PDI

Some compounds with recorded PDI:
[
  {
    "Substance Smiles": "CCCCCCCCCCCCSc1nc(NCCCN2CCOCC2)nc(SCCCCCCCCCCC)n1",
    "Experimental Value": 0.02
  },
  {
    "Substance Smiles": "CCCCCCCCCCCCCCCCCCSc1nc(NCCN2CCCC2)nc(SCCCCCCC)n1",
    "Experimental Value": 0.10
  },
  {
    "Substance Smiles": "CCCCCCCCCCCCCNc1nc(NCCCN(C)C)nc(SCCCCCCCCCCCC)n1",
    "Experimental Value": 0.05
  }
]

1: CCCCCCCCCCCCCCCCSc1nc(NCCCCCCC)nc(NCCCN2CCN(C)CC2)n1
2: CCCCCCCCCCCCCCCCSc1nc(NCCCCCCCC)nc(NCC2CCN(C)CC2)n1
3: CCCCCCCCCCCCCCCCSc1nc(NCCCCCCCCC)nc(NCCN2CCCC2)n1
4: CCCCCCCC/C=C\CCCCCCCCSc1nc(OCCN2CCCC2)nc(SCCCCCCCCC)n1
Problem: Returns the items ordered by PDI, from maximum to minimum. Please, when replying, give the labels in the order that was requested.
Result: 3, 2, 4, 1
